Answer each item with its documented Solubility in water.
# assay.name: Test for water solubility
# Assay type: physicochemical
# reported.conditions: water

Field: example entries. Status: answers known.
Recorded Solubility in water for CC(C)C1O[C@H](CN)[C@@H](CN)O1.O=C1C[O][Pt][O]1 , please?
> 30 mg/mL

Recorded Solubility in water for CC1[O][Pt][O]C1=O.NCC1OC2(CCCC2)OC1CN (centres unmarked) , please?
4.9 mg/mL

Recorded Solubility in water for CCC1(C)OC2C[NH2+][Pt-2]3([NH2+]CC2O1)[O]CC(=O)[O]3 (centres unmarked) , please?
11.6 mg/mL

Recorded Solubility in water for CC1(C)O[C@H](CN)[C@@H](CN)O1.O=C1C[O][Pt][O]1 , please?
17.5 mg/mL

Okay, now this molecule:
Recorded Solubility in water for CC1(C)OC2C[NH2+][Pt-2]3([NH2+]CC2O1)[O]C(=O)C1(CCC1)C(=O)[O]3 (centres unmarked) [Example 27] , please?
1.9 mg/mL

###

# Tested on: ICR mice
# assay.name: Acute toxicity test
# Format: in vivo
# reported.conditions: male, 71.4 mg/kg i.p.
Answer each item with its documented Number of dead mice, 4th day.

Field: example entries. Status: answers known.
Recorded Number of dead mice, 4th day for CCC1(C)OC2C[NH2+][Pt-2]3([NH2+]CC2O1)[O]CC(=O)[O]3 (stereo not drawn) [Example 9] , please?
1/6

Recorded Number of dead mice, 4th day for CCC1(CC)OC2C[NH2+][Pt-2]3([NH2+]CC2O1)[O]CC(=O)[O]3 (stereo not drawn) [Example 8] , please?
4/5

Recorded Number of dead mice, 4th day for CCC1O[C@H](CN)[C@@H](CN)O1.O=C1C[O][Pt][O]1 [Example 6] , please?
2/2

# batch size: 6; output Number of dead mice, 4th day per entry
1. CC(C)C1O[C@H](CN)[C@@H](CN)O1.O=C1C[O][Pt][O]1 [Example 7]
2. CC(C)C1OC(CN)C(CN)O1.CC1[O][Pt][O]C1=O (stereo not drawn) [Example 19]
3. CC1(C)O[C@H](CN)[C@@H](CN)O1.O=C1C[O][Pt][O]1 [Example 2]
4. NC[C@H]1OC2(CCCC2)O[C@@H]1CN.O=C1C[O][Pt][O]1 [Example 3]
5. CC1[O][Pt][O]C1=O.NCC1OC2(CCCC2)OC1CN (stereo not drawn) [Example 15]
6. CC1[O][Pt][O]C1=O.CCC1OC(CN)C(CN)O1 (stereo not drawn) [Example 18]

1. 2/4
2. 1/6
3. 2/2
4. 2/2
5. 4/6
6. 2/6

###

Answer each item with its documented Number of dead mice, 2nd day.
# Test system: ICR mice
# assay.name: Acute toxicity test
# Assay type: in vivo
# reported.conditions: male, 270 mg/kg i.p.

Recorded Number of dead mice, 2nd day for O=C1[O][Pt-2]2([NH2+]CC3OC4(CCCC4)OC3C[NH2+]2)[O]C(=O)C12CCC2 (stereo not shown) , please?
2/6

Recorded Number of dead mice, 2nd day for CCC1OC2C[NH2+][Pt-2]3([NH2+]CC2O1)[O]C(=O)C1(CCC1)C(=O)[O]3 (stereo not shown) , please?
1/6

# batch size: 2; output Number of dead mice, 2nd day per entry
1. CC1OC2C[NH2+][Pt-2]3([NH2+]CC2O1)[O]C(=O)C1(CCC1)C(=O)[O]3 (stereo not shown)
2. O=C1[O][Pt-2]2([NH2+]CC3OCOC3C[NH2+]2)[O]C(=O)C12CCC2 (stereo not shown)

1: 2/6; 2: 4/6

###

Answer each item with its documented Number of dead mice, 1st day.
# Tested on: ICR mice
# assay.name: Acute toxicity test
# Format: in vivo
# reported.conditions: female, 32.5 mg/kg i.p.

Field: example entries. Status: answers known.
Recorded Number of dead mice, 1st day for NC[C@H]1OC2(CCCCC2)O[C@@H]1CN.O=C1C[O][Pt][O]1 , please?
0/6

Recorded Number of dead mice, 1st day for CCC1O[C@H](CN)[C@@H](CN)O1.O=C1C[O][Pt][O]1 , please?
0/6

Recorded Number of dead mice, 1st day for NC[C@H]1OC2(CCCC2)O[C@@H]1CN.O=C1C[O][Pt][O]1 , please?
0/6

Recorded Number of dead mice, 1st day for CC(C)C1O[C@H](CN)[C@@H](CN)O1.O=C1C[O][Pt][O]1 , please?
0/6

Okay, now this compound:
Recorded Number of dead mice, 1st day for CC1(C)O[C@H](CN)[C@@H](CN)O1.O=C1C[O][Pt][O]1 , please?
0/6

###

# Tested on: ICR mice
# assay.name: Acute toxicity test
# Assay type: in vivo
# Set-up: unit not given here
# reported.conditions: male, 55.0 mg/kg i.p.; 10080 min
measurement.type: Lethality
One number for each entry.

For the record NC[C@H]1OC2(CCCC2)O[C@@H]1CN.O=C1C[O][Pt][O]1 , what value of Lethality is listed for ICR mice?
100.0

For the record NC[C@H]1OC2(CCCCC2)O[C@@H]1CN.O=C1C[O][Pt][O]1 , what value of Lethality is listed for ICR mice?
50.0

For the record CCC1O[C@H](CN)[C@@H](CN)O1.O=C1C[O][Pt][O]1 , what value of Lethality is listed for ICR mice?
100.0

For the record CC(C)C1O[C@H](CN)[C@@H](CN)O1.O=C1C[O][Pt][O]1 , what value of Lethality is listed for ICR mice?
33.3

Okay, now this molecule:
For the record CC1(C)O[C@H](CN)[C@@H](CN)O1.O=C1C[O][Pt][O]1 , what value of Lethality is listed for ICR mice?
100.0

###

# Test system: ICR mice
# assay.name: Acute toxicity test
# Format: in vivo
# reported.conditions: female, 32.5 mg/kg i.p.
Answer each item with its documented Number of dead mice for 7 days.

# batch size: 5; output Number of dead mice for 7 days per entry
1. CCC1O[C@H](CN)[C@@H](CN)O1.O=C1C[O][Pt][O]1 [Example 6]
2. CC1(C)O[C@H](CN)[C@@H](CN)O1.O=C1C[O][Pt][O]1 [Example 2]
3. CC(C)C1O[C@H](CN)[C@@H](CN)O1.O=C1C[O][Pt][O]1 [Example 7]
4. NC[C@H]1OC2(CCCCC2)O[C@@H]1CN.O=C1C[O][Pt][O]1 [Example 4]
5. NC[C@H]1OC2(CCCC2)O[C@@H]1CN.O=C1C[O][Pt][O]1 [Example 3]

["1/6", "3/6", "0/6", "0/6", "0/6"]

###

# Test system: ICR mice
# assay.name: Acute toxicity test
# Assay type: in vivo
# Parameters: unit not given here
# reported.conditions: female, 71.4 mg/kg i.p.; 10080 min
measurement.type: Lethality
One number for each entry.

Field: example entries. Status: answers known.
Recorded Lethality for CCC1(CC)OC2C[NH2+][Pt-2]3([NH2+]CC2O1)[O]CC(=O)[O]3 (stereo not shown) , please?
83.7

Recorded Lethality for CC1[O][Pt][O]C1=O.NCC1OC2(CCCC2)OC1CN (stereo not shown) , please?
83.7

Recorded Lethality for CC(C)C1O[C@H](CN)[C@@H](CN)O1.O=C1C[O][Pt][O]1 , please?
66.7

Recorded Lethality for NC[C@H]1OC2(CCCCC2)O[C@@H]1CN.O=C1C[O][Pt][O]1 , please?
66.7

Recorded Lethality for CCC1O[C@H](CN)[C@@H](CN)O1.O=C1C[O][Pt][O]1 , please?
100.0

Recorded Lethality for CC(C)C1OC(CN)C(CN)O1.CC1[O][Pt][O]C1=O (stereo not shown) , please?
83.3

Recorded Lethality for CCC1(C)OC2C[NH2+][Pt-2]3([NH2+]CC2O1)[O]CC(=O)[O]3 (stereo not shown) , please?
83.7

Recorded Lethality for CC1[O][Pt][O]C1=O.CCC1OC(CN)C(CN)O1 (stereo not shown) , please?
83.3

# batch size: 2; output Lethality per entry
1. NC[C@H]1OC2(CCCC2)O[C@@H]1CN.O=C1C[O][Pt][O]1
2. CC1(C)O[C@H](CN)[C@@H](CN)O1.O=C1C[O][Pt][O]1

100.0
100.0

###

# System: ICR mice
# assay.name: Acute toxicity test
# Format: in vivo
# reported.conditions: male, 25.0 mg/kg i.p.
measurement.type: Number of dead mice for 7 days

Recorded Number of dead mice for 7 days for CC(C)C1O[C@H](CN)[C@@H](CN)O1.O=C1C[O][Pt][O]1 [Example 7] , please?
0/6

Recorded Number of dead mice for 7 days for NC[C@H]1OC2(CCCC2)O[C@@H]1CN.O=C1C[O][Pt][O]1 [Example 3] , please?
0/6

Recorded Number of dead mice for 7 days for NC[C@H]1OC2(CCCCC2)O[C@@H]1CN.O=C1C[O][Pt][O]1 [Example 4] , please?
0/6

Recorded Number of dead mice for 7 days for CCC1O[C@H](CN)[C@@H](CN)O1.O=C1C[O][Pt][O]1 [Example 6] , please?
0/6

Okay, now this compound:
Recorded Number of dead mice for 7 days for CC1(C)O[C@H](CN)[C@@H](CN)O1.O=C1C[O][Pt][O]1 [Example 2] , please?
0/6
